- MEASUREMENT_TARGET: T1, human CD4 on cells (SKW3 cells; human PBMCs) (human, UniProt P01730 26-458)
- T1 construct: whole, on cells; The SKW3 CD4 knockout cells served as the negative cell line; also called hCD4
- METHOD: FACS confirmation, supernatant on SKW3 WT cells, anti-hu Kappa FITC; background gMFI 2500
QUANTITY_NAME: gMFI, SKW3 WT anti-hu Kappa FITC (gMFI)
Give the value, in units of gMFI, as a plain number.

Query :: Supply gMFI, SKW3 WT anti-hu Kappa FITC value. Item: 75110_01H18A (antibody, V domains shown, Tested as non-clonal hybridoma supernatant from AlivaMab Mouse Kappa mice, detected with anti-mouse Fc and anti-human Kappa) VH: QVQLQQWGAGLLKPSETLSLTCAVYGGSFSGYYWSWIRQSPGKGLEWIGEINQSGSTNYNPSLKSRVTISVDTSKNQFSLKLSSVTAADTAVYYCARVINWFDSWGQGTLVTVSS VL: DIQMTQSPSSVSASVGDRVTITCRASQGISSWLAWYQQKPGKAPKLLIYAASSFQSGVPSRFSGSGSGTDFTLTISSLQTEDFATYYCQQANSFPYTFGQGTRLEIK
Result :: 4930
